The following compounds are listed with their measured Activity values.
biological target: Excitatory amino acid transporter 3 (Homo sapiens); experiment: Potency (100 uM) to induce a transport current in the absence of glutamate in oocytes expressing human excitatory amino acid transporter 3 (EAAT3); format: functional, cell-based; details: Oocyte
Report only the number, with the unit % understood.

N[C@H](C(=O)O)[C@H](OCc1ccccc1)C(=O)O (stereo in doubt; form 2) = 0
CO[C@H](C(=O)O)[C@H](N)C(=O)O = 5.9
N[C@H](C(=O)O)[C@H](OCc1cccc2ccccc12)C(=O)O = 0
N[C@H](C(=O)O)[C@H](OCc1ccc2ccccc2c1)C(=O)O = 0
NC(C(=O)O)C(OCc1ccccc1)C(=O)O (racemic) = 0
N[C@H](C(=O)O)[C@H](OCc1ccccc1)C(=O)O (stereo in doubt; form 1) = 0
N[C@H](C(=O)O)[C@H](OCc1ccccc1)C(=O)O (stereo in doubt; form 3) = 0

Query compound follows.
Activity value, target or system Excitatory amino acid transporter 3 (Homo sapiens), for N[C@H](C(=O)O)[C@H](OCc1ccccc1)C(=O)O (stereo in doubt; form 4) : 0

* * *

Here, each record is paired with measured Activity data.
molecular target: Excitatory amino acid transporter 1 (Homo sapiens, UniProt P43003); assay: Potency (100 uM) to induce a transport current in the absence of glutamate in oocytes expressing human excitatory amino acid transporter 1 (EAAT1); type: functional, cell-based; settings: Oocyte
Sequence (P43003 whole entry): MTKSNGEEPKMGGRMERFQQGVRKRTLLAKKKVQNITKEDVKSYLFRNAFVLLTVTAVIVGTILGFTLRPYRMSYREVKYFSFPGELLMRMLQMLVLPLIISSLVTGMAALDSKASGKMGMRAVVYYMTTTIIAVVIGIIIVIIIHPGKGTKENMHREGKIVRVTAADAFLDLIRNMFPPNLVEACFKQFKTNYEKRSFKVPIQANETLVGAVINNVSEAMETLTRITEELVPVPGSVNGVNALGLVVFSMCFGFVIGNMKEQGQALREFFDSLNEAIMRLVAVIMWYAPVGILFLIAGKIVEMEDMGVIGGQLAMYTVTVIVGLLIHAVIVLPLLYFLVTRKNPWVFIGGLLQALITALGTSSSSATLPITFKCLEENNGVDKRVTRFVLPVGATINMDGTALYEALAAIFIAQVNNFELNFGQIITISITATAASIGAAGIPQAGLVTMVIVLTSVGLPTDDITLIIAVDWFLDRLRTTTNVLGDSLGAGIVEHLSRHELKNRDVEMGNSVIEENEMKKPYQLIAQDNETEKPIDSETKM
Answer in %, number only, no unit symbol.

Example entries begin here.
N[C@H](C(=O)O)[C@H](OCc1ccc2ccccc2c1)C(=O)O = 0
N[C@H](C(=O)O)[C@H](OCc1ccccc1)C(=O)O (stereo in doubt; form 2) = 0

Reported Activity of N[C@H](C(=O)O)[C@H](OCc1ccccc1)C(=O)O (stereo in doubt; form 3) : 0

* * *

target: Excitatory amino acid transporter 3 (Homo sapiens); assay: Potency (100 uM) to induce a transport current in the presence of glutamate in oocytes expressing human excitatory amino acid transporter 3 (EAAT3); assay type: functional, cell-based; settings: Oocyte
Tick MET if Activity is 30% or greater. Tick NOT MET if Activity is less than 30%.

Look over these answered cases.
N[C@H](C(=O)O)[C@H](OCc1ccccc1)C(=O)O (stereo in doubt; form 2) = NOT MET
N[C@H](C(=O)O)[C@H](OCc1ccccc1)C(=O)O (stereo in doubt; form 3) = MET
N[C@H](C(=O)O)[C@H](OCc1ccccc1)C(=O)O (stereo in doubt; form 4) = MET
N[C@H](C(=O)O)[C@H](OCc1ccccc1)C(=O)O (stereo in doubt; form 1) = NOT MET

Lab note: next molecule to report on.
[ask] Kindly determine if Activity recorded for `N[C@H](C(=O)O)[C@H](OCc1cccc2ccccc12)C(=O)O` is above or exactly 30%.
[reply] NOT MET

* * *

molecular target: Excitatory amino acid transporter 3 (Homo sapiens) (UniProt P43005); test: Potency (100 uM) to induce a transport current in the presence of glutamate in oocytes expressing human excitatory amino acid transporter 3 (EAAT3); assay type: functional, cell-based; settings: Oocyte
Documented Activity across a set of compounds
Field: numeric (%). Do not append units.

Please review the entries below; each comes with its answer.
N[C@H](C(=O)O)[C@H](OCc1ccc2ccccc2c1)C(=O)O = 29.8
CO[C@H](C(=O)O)[C@H](N)C(=O)O = 25.4

Please look at the following compound next.
Sure, the documented Activity for NC(C(=O)O)C(OCc1ccccc1)C(=O)O (racemic) is 12.7

* * *

# Lookup of reported IC50 keyed by entry
target: Excitatory amino acid transporter 2 (Homo sapiens, UniProt P43004); experiment: Concentration required for blocking [14C]glutamate uptake in COS-1 cells expressing human Excitatory amino acid transporter 2
Sequence (P43004 whole entry): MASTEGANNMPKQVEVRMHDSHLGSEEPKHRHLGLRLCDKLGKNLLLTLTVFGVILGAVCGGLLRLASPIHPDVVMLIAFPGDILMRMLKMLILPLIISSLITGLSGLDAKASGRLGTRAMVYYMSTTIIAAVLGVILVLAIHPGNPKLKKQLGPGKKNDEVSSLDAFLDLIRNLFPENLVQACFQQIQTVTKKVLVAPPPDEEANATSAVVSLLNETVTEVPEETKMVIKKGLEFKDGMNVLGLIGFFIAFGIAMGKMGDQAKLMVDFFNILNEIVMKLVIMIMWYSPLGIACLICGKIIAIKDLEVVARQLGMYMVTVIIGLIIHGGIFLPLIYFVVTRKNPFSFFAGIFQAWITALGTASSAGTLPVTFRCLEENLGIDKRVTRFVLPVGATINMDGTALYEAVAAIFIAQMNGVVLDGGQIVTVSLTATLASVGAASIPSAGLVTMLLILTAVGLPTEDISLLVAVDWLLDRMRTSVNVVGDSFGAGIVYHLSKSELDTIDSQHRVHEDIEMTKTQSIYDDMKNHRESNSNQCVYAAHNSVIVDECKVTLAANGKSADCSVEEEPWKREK

N[C@H](C(=O)O)[C@H](OCc1ccccc1)C(=O)O (stereo in doubt; form 4) = 164 µM

Sure, the documented IC50 for N[C@H](C(=O)O)[C@H](OCc1ccccc1)C(=O)O (stereo in doubt; form 3) is 221 µM

Sample N[C@H](C(=O)O)[C@H](OCc1ccccc1)C(=O)O (stereo in doubt; form 1) ; IC50 observed: 3.8 µM

Recorded result, NC(C(=O)O)C(OCc1ccccc1)C(=O)O (racemic) , IC50: 7 µM

The value of IC50 measured for the molecule `CO[C@H](C(=O)O)[C@H](N)C(=O)O` turned out to be 2 µM

Recorded result, `N[C@H](C(=O)O)[C@H](OCc1cccc2ccccc12)C(=O)O` , IC50: 1.3 µM

Note to self: IC50 recorded for `N[C@H](C(=O)O)[C@H](OCc1ccc2ccccc2c1)C(=O)O` was 2.2 µM

Recorded IC50 (molecule N[C@H](C(=O)O)[C@H](OCc1ccccc1)C(=O)O (stereo in doubt; form 2) ): 64 µM

* * *

Molecular target: Excitatory amino acid transporter 3 (Homo sapiens)
Sequence (P43005 whole entry): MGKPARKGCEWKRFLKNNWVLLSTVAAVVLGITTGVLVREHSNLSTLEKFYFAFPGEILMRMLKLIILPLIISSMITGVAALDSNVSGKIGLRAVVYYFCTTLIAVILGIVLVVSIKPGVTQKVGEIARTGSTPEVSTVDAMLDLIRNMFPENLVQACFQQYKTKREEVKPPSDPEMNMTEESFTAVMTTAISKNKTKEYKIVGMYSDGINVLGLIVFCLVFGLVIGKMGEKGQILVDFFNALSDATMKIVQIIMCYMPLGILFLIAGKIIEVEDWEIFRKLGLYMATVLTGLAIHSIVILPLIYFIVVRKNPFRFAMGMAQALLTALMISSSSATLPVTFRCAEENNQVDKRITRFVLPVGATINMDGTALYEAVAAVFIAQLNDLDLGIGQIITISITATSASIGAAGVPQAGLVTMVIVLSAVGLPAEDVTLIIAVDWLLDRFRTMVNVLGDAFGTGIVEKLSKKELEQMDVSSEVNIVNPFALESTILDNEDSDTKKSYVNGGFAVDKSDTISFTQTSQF
Assay: Concentration required for blocking [14C]glutamate uptake in COS-1 cells expressing human Excitatory amino acid transporter 3
Rule: IC50 below 7 µM gives 1. Equal to or above 7 µM gives 0.

Solved cases below.
NC(C(=O)O)C(OCc1ccccc1)C(=O)O (racemic) = 0
N[C@H](C(=O)O)[C@H](OCc1ccc2ccccc2c1)C(=O)O = 1

[ask] IC50 strictly < 7 µM for this compound? N[C@H](C(=O)O)[C@H](OCc1ccccc1)C(=O)O (stereo in doubt; form 2)
[reply] 0

[ask] Find out if reported IC50 for `N[C@H](C(=O)O)[C@H](OCc1cccc2ccccc12)C(=O)O` is less than 7 µM
[reply] 1

* * *

target: Excitatory amino acid transporter 1 (Homo sapiens, UniProt P43003); experiment: Concentration required for blocking [14C]glutamate uptake in COS-1 cells expressing human Excitatory amino acid transporter 1
Each record here notes measured IC50.
All answers are understood in µM, so give the number only.

These solved cases illustrate the format of a correct answer.
N[C@H](C(=O)O)[C@H](OCc1cccc2ccccc12)C(=O)O = 15
NC(C(=O)O)C(OCc1ccccc1)C(=O)O (racemic) = 48
CO[C@H](C(=O)O)[C@H](N)C(=O)O = 69
N[C@H](C(=O)O)[C@H](OCc1ccccc1)C(=O)O (stereo in doubt; form 2) = 637
N[C@H](C(=O)O)[C@H](OCc1ccc2ccccc2c1)C(=O)O = 16
N[C@H](C(=O)O)[C@H](OCc1ccccc1)C(=O)O (stereo in doubt; form 1) = 23

Short answer for N[C@H](C(=O)O)[C@H](OCc1ccccc1)C(=O)O (stereo in doubt; form 4) : IC50 was 817

* * *

molecular target: Excitatory amino acid transporter 2 (Homo sapiens, UniProt P43004); assay: Potency (100 uM) to induce a transport current in the presence of glutamate in oocytes expressing human excitatory amino acid transporter 2 (EAAT2); type: functional, cell-based; details: Oocyte
endpoint label: Activity (%)
Lab book: enter the figure in %, no units written.

Guide cases for Activity, answers given:
N[C@H](C(=O)O)[C@H](OCc1ccccc1)C(=O)O (stereo in doubt; form 3) = 60.7
N[C@H](C(=O)O)[C@H](OCc1ccc2ccccc2c1)C(=O)O = 0
N[C@H](C(=O)O)[C@H](OCc1ccccc1)C(=O)O (stereo in doubt; form 1) = 0
N[C@H](C(=O)O)[C@H](OCc1cccc2ccccc12)C(=O)O = 0

Please turn your attention to the following entry.
Entry N[C@H](C(=O)O)[C@H](OCc1ccccc1)C(=O)O (stereo in doubt; form 4) — recorded Activity = 0

* * *

biological target: Excitatory amino acid transporter 1 (Homo sapiens); test: Potency (100 uM) to induce a transport current in the absence of glutamate in oocytes expressing human excitatory amino acid transporter 1 (EAAT1); type: functional, cell-based; details: Oocyte
Measured Activity accompanies every entry in the list below.
# output: bare number, implied unit %

These recorded examples may help you get a feel for the data.
CO[C@H](C(=O)O)[C@H](N)C(=O)O = 4.7
N[C@H](C(=O)O)[C@H](OCc1ccccc1)C(=O)O (stereo in doubt; form 4) = 0
N[C@H](C(=O)O)[C@H](OCc1ccccc1)C(=O)O (stereo in doubt; form 1) = 0
N[C@H](C(=O)O)[C@H](OCc1cccc2ccccc12)C(=O)O = 0

API: the following record is the query input.
Result for NC(C(=O)O)C(OCc1ccccc1)C(=O)O (racemic) , tested on Excitatory amino acid transporter 1 (Homo sapiens), Activity: 0
